assay-text: Solubility in the growing media during cytotoxicity testing
Format: physicochemical
conditions-used: concentration of 100 µM
property-name: solubility in the growing media

// below: answered compounds
Input CCOc1c2[nH]c3ccccc3c2cc2[nH]c3ccccc3c12 . Output solubility in the growing media: slight turbidity

Input CC(=O)Nc1ccccc1C(=O)c1c2[nH]c3ccccc3c2cc2[nH]c3ccccc3c12 . Output solubility in the growing media: slight turbidity

Input O=C(NCCCOCCOCCOCCCNC(=O)c1ccc2c(-c3c4[nH]c5ccccc5c4cc4[nH]c5ccccc5c34)c[nH]c2c1)c1ccc2c(-c3c4[nH]c5ccccc5c4cc4[nH]c5ccccc5c34)c[nH]c2c1 [12d] . Output solubility in the growing media: not soluble

Input Cc1cccc2[nH]cc(-c3c4[nH]c5ccccc5c4cc4[nH]c5ccccc5c34)c12 . Output solubility in the growing media: not soluble

Consider now this further compound.
Input Brc1ccc2[nH]cc(-c3c4[nH]c5ccccc5c4cc4[nH]c5ccccc5c34)c2c1 . Output solubility in the growing media: not soluble

----------
measured-target: aryl hydrocarbon receptor (AhR) (Homo sapiens, UniProt P35869)
Construct: AhR-dependent reporter gene activity was determined in human HepG2 cells stably transfected with an XRE; endogenous in cells; host or cells: XRE-HepG2 (human HepG2 hepatoma cells stably carrying an XRE-luciferase plasmid)
Sequence (P35869 11-848): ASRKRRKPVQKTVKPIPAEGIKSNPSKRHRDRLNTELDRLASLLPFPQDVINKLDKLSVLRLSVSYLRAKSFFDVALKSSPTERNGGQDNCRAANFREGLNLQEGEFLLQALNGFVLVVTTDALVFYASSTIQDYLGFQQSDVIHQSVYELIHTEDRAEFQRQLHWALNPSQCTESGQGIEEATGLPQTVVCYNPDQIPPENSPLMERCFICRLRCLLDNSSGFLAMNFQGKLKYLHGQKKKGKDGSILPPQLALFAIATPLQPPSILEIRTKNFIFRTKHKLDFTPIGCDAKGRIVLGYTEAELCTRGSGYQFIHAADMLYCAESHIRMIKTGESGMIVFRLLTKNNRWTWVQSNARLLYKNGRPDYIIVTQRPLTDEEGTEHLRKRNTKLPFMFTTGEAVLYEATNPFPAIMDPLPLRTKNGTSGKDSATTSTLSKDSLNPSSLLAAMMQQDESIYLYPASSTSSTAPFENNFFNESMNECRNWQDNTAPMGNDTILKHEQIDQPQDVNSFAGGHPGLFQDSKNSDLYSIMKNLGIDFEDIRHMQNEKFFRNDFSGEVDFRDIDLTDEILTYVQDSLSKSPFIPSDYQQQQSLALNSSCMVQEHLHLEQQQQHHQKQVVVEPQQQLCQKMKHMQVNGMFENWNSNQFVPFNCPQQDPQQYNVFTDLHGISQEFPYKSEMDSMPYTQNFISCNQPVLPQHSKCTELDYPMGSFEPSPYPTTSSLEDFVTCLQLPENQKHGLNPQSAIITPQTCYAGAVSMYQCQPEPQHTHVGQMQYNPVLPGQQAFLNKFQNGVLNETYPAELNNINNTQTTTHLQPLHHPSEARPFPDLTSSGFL
assay-text: AhR/XRE-dependent luciferase reporter gene assay in XRE-HepG2 cells
Assay type: cell-based
conditions-used: XRE-HepG2 cells, 8 h; unit as in the supplements; read-out: AhR/XRE-dependent luciferase activity EC50
pEC50: −log10 of the molar value.
Lab note: compare pEC50 against 6. Equal or greater, write True. Smaller, write False.

Q. Form field: pEC50 at least 6? Entry: Cc1ccc(C#Cc2ccc3[nH]cc(-c4c5[nH]c6ccccc6c5cc5[nH]c6ccccc6c45)c3c2)cc1 [9b]
A. False

Q. Form field: pEC50 at least 6? Entry: O=C1OCC(O)=C1c1c2[nH]c3ccccc3c2cc2[nH]c3ccccc3c12 [4b]
A. False

Q. Form field: pEC50 at least 6? Entry: Cn1cc(-c2c3[nH]c4ccccc4c3cc3[nH]c4ccccc4c23)c2ccccc21 [5d]
A. True

Q. Form field: pEC50 at least 6? Entry: CS(=O)(=O)Nc1ccc(-c2ccc3[nH]cc(-c4c5[nH]c6ccccc6c5cc5[nH]c6ccccc6c45)c3c2)cc1 [9a]
A. True

Q. Form field: pEC50 at least 6? Entry: O=c1oc2ccccc2c(O)c1-c1c2[nH]c3ccccc3c2cc2[nH]c3ccccc3c12 [4c]
A. False

Q. Form field: pEC50 at least 6? Entry: CC1(C)CC(=O)C(c2c3[nH]c4ccccc4c3cc3[nH]c4ccccc4c23)=C(O)C1 [4a]
A. False

Q. Form field: pEC50 at least 6? Entry: COc1ccc2[nH]cc(-c3c4[nH]c5ccccc5c4cc4[nH]c5ccccc5c34)c2c1 [5a]
A. True

Q. Form field: pEC50 at least 6? Entry: Cc1[nH]c2ccccc2c1-c1c2[nH]c3ccc(F)cc3c2cc2[nH]c3ccc(F)cc3c12 [5k]
A. False

Q. Form field: pEC50 at least 6? Entry: O=C(NCCCCCCCCCCNC(=O)c1ccc2c(-c3c4[nH]c5ccccc5c4cc4[nH]c5ccccc5c34)c[nH]c2c1)c1ccc2c(-c3c4[nH]c5ccccc5c4cc4[nH]c5ccccc5c34)c[nH]c2c1 [12c]
A. False

Q. Form field: pEC50 at least 6? Entry: Cc1cccc2c(-c3c4[nH]c5ccccc5c4cc4[nH]c5ccccc5c34)c[nH]c12 [5i]
A. True

Q. Form field: pEC50 at least 6? Entry: CCOc1c2[nH]c3ccccc3c2cc2[nH]c3ccccc3c12 [compound 8, 6-ethoxy-ICZ]
A. True

Q. Form field: pEC50 at least 6? Entry: CC(=O)Nc1ccccc1C(=O)c1c2[nH]c3ccccc3c2cc2[nH]c3ccccc3c12 [compound 10]
A. True

Q. Form field: pEC50 at least 6? Entry: COc1ccc2[nH]c3c(-c4c(C)[nH]c5ccccc45)c4c(cc3c2c1)[nH]c1ccc(OC)cc14 [5l]
A. True

Q. Form field: pEC50 at least 6? Entry: OCc1[nH]c2ccccc2c1-c1c2[nH]c3ccccc3c2cc2[nH]c3ccccc3c12 [5g]
A. False

Q. Form field: pEC50 at least 6? Entry: Cc1cccc2[nH]cc(-c3c4[nH]c5ccccc5c4cc4[nH]c5ccccc5c34)c12 [5h]
A. True

Q. Form field: pEC50 at least 6? Entry: O=C(O)c1ccc2c(-c3c4[nH]c5ccccc5c4cc4[nH]c5ccccc5c34)c[nH]c2c1 [5m]
A. False

Q. Form field: pEC50 at least 6? Entry: O=C(NCCCOCCOCCOCCCNC(=O)c1ccc2c(-c3c4[nH]c5ccccc5c4cc4[nH]c5ccccc5c34)c[nH]c2c1)c1ccc2c(-c3c4[nH]c5ccccc5c4cc4[nH]c5ccccc5c34)c[nH]c2c1 [12d]
A. False

Q. Form field: pEC50 at least 6? Entry: O=C1CCC(N2C(=O)c3cccc(OCCOCCOCCOCCNC(=O)c4ccc5c(-c6c7[nH]c8ccccc8c7cc7[nH]c8ccccc8c67)c[nH]c5c4)c3C2=O)C(=O)N1 (stereo not drawn) [12b]
A. True

Q. Form field: pEC50 at least 6? Entry: Clc1cc2c(cc1Cl)Oc1cc(Cl)c(Cl)cc1O2 [TCDD, 2,3,7,8-tetrachlorodibenzodioxin, reference compound]
A. True

Q. Form field: pEC50 at least 6? Entry: Cc1[nH]c2ccccc2c1-c1c2[nH]c3ccccc3c2cc2[nH]c3ccccc3c12 [5e]
A. True

----------
For each record, write down the corresponding pEC50.
measured-target: aryl hydrocarbon receptor (AhR) (Homo sapiens, UniProt P35869)
Construct: AhR-dependent reporter gene activity was determined in human HepG2 cells stably transfected with an XRE; endogenous in cells; host or cells: XRE-HepG2 (human HepG2 hepatoma cells stably carrying an XRE-luciferase plasmid)
assay-text: AhR/XRE-dependent luciferase reporter gene assay in XRE-HepG2 cells
Type: cell-based
conditions-used: XRE-HepG2 cells, 8 h; unit as in the supplements; read-out: AhR/XRE-dependent luciferase activity EC50
Scale explanation: pEC50 corresponds to minus log10 of a concentration expressed in moles per litre.

Input Brc1ccc2[nH]cc(-c3c4[nH]c5ccccc5c4cc4[nH]c5ccccc5c34)c2c1 . Output pEC50: 6.03

Input Cn1c2ccccc2c2c(C3=C(O)CC(C)(C)CC3=O)c3c(cc21)c1ccccc1n3C . Output pEC50: 5.88

Input c1ccc(-c2[nH]c3ccccc3c2-c2c3[nH]c4ccccc4c3cc3[nH]c4ccccc4c23)cc1 . Output pEC50: 5.93

Input Cc1[nH]c2ccccc2c1-c1c2c3ccccc3n(C)c2cc2c3ccccc3n(C)c12 . Output pEC50: 5.92
